# Test system: Huh7.5 cells
# reported.conditions: read-out: CC50 MTT, 72h, 4320 min
metric: CC50 (µM)
Number only, in µM; omit the unit.

Return CC50 (reported value) for this molecule: `[H]/N=C(/N)N/C(=N/[H])NCCc1ccccc1`
61.2

---

# experiment: in vitro
# reported.conditions: human, caco-2
metric: CC50 at 72 h

Return CC50 at 72 h (reported value) for this molecule: COc1[nH]c(=O)c(C(=O)C(C)CC(C)C(Cl)CCl)c(O)c1OC (stereo not shown) [Atpenin A5]
> 60 µM

---

# experiment: in vitro
# reported.conditions: human, huh7.5 cells, CC50 MTT
metric: CC50 at 72 h (µM)
Number only, in µM; omit the unit.

Return CC50 at 72 h (reported value) for this compound: [H]/N=C(/N)N/C(=N/[H])NCCc1ccccc1 [Phenformin, phenformin]
61
